Listing of recorded EC90 by entry.
# Tested on: Trypanosoma brucei brucei
# experiment_summary: Antitrypanosomal activity against Trypanosoma brucei brucei BF427 assessed as growth inhibition measured after 48 hrs by Alamar blue assay
# Format: functional
# applied_conditions: BF427, 48 h
reported_metric: EC90 (nM)

> print(dat)
                                    compound  reported.metric  limit.operator  observed.result
 1  N#CC1CCN(C(=O)Nc2ccc3sc(-c4ccc(F)c(F)c4)nc3c2)C1 (stereo unspecified)             EC90               =             4670
 2  CC(C)(Cc1csc(-c2ccccc2)n1)NC(=O)N1CCCCC1             EC90               =             9900
 3  O=C(NCCc1nc(-c2cccc(F)c2)cs1)N1CCCc2ccccc21             EC90               =            14000
 4     O=C(Nc1ccc2sc(-c3ccccc3)nc2c1)c1cccs1             EC90               =             2130
 5  O=C(Nc1ccc2sc(-c3ccc(F)c(F)c3)nc2c1)N1CC[C@@H](F)C1             EC90               =              491
 6             Cc1nc2cc(NC(=O)N3CCCC3)ccc2s1             EC90               >            20000
 7  O=C(Nc1ccc2sc(-c3cccc(F)c3)nc2c1)N1CCCC1             EC90               =              391
 8  CC(C)(CNC(=O)c1ccccc1)c1nc(-c2ccccc2)cs1             EC90               >            10000
 9  COC1CCN(C(=O)Nc2ccc3sc(-c4ccc(F)c(F)c4)nc3c2)C1 (stereo unspecified)             EC90               =             4590
10  O=C(Nc1ccc2sc(-c3cccc(F)c3)nc2c1)N1CCN(C(=O)Nc2ccc3sc(-c4cccc(F)c4)nc3c2)CC1             EC90               >            20000
11  O=C(NCCc1nc(-c2cccc(F)c2)cs1)N1CCc2ccccc2C1             EC90               =            13800
12   O=C(Nc1ccc2sc(-c3ccccc3F)nc2c1)N1CCCCC1             EC90               =             1140
13                O=C(Nc1ccc2scnc2c1)N1CCCC1             EC90               >            20000
14  O=C(Nc1ccc2sc(-c3cccc(F)c3F)nc2c1)N1CCCC1             EC90               =              394
15  CN(C)C1CCN(C(=O)Nc2ccc3sc(-c4ccc(F)c(F)c4)nc3c2)C1 (stereo unspecified)             EC90               =             1950
16  O=C(Nc1ccc2nc(-c3ccc(F)c(F)c3)sc2c1)N1CCC(F)C1 (stereo unspecified)             EC90               >            20000
17  O=C(Nc1ccc2sc(-c3ccc(F)c(F)c3)nc2c1)N1CCC(F)(F)C1             EC90               =             1660
18     O=C(Nc1ccc2sc(-c3ccccc3)nc2c1)N1CCCC1             EC90               =              817
19  O=C(NCCc1nc(-c2cccc(F)c2)cs1)N1CCCC(F)(F)C1             EC90               =              168
20  O=C(NCCc1nc(-c2cccc(F)c2)cs1)N1CCCC(F)C1 (stereo unspecified)             EC90               =             55.7
21  O=C(Nc1ccc2sc(-c3ccc(F)cc3F)nc2c1)N1CCCC1             EC90               =             1480
22  O=C(Nc1ccc2sc(-c3ccc(F)c(F)c3)nc2c1)N1CCCC1             EC90               =              181
23  CC1CCCCN1C(=O)NCCc1nc(-c2cccc(F)c2)cs1 (stereo unspecified)             EC90               =             58.6
24  C[C@@H]1CCC[C@H](C)N1C(=O)NCCc1nc(-c2cccc(F)c2)cs1             EC90               =              564
25  CN1CCN(C(=O)Nc2ccc3sc(-c4cccc(F)c4)nc3c2)CC1             EC90               =             7550
26  O=C(Nc1ccc2sc(-c3ccc(F)cc3)nc2c1)N1CCCCC1             EC90               =              737
